Source listed as patent US20230192896A1.

- TARGET_SYSTEM: free FIXa (activated Factor IX) (UniProt P00740 47-191; P00740 227-461)
- PROCEDURE_DETAILS: BLI
READOUT_LABEL: pKd
The quantity pKd is defined as the negative base-10 logarithm of the molar concentration.

# annotated cases, reported pKd shown
BINDER	pKd
BIIB-9-460 (antibody, V domains shown) VH: QVQLVQSGAEVKKPGASVKVSCKASGYTFTSYYMHWVRQAPGQGLEWMGIINPSGGSTSYAQKFQGRVTMTRDTSTSTVYMELSSLRSEDTAVYYCARDISTDGESSLYYYMDVWGKGTTVTVSS VL: EIVMTQSPATLSVSPGERATLSCRASQSVSSNLAWYQQKPGQAPRLLIYGASTRATGIPARFSGSGSGTEFTLTISSLQSEDFAVYYCQQHDNFPFTFGGGTKVEIK	7.70
BIIB-9-414 (antibody, V domains shown) VH: QVQLVQSGAEVKKPGASVKVSCKASGYTFTSYYMHWVRQAPGQGLEWMGIINPSGGSTSYAQKFQGRVTMTRDTSTSTVYMELSSLRSEDTAVYYCARDPYSYGMYYFDYWGQGTLVTVSS VL: DIQMTQSPSSVSASVGDRVTITCRASQGISSWLAWYQQKPGKAPKLLIYAASSLQSGVPSRFSGSGSGTDFTLTISSLQPEDFATYYCQQGDVFPFTFGGGTKVEIK	7.78
BIIB-9-445 (antibody, V domains shown) VH: QVQLVQSGAEVKKPGASVKVSCKASGYTFTSYYIHWVRQAPGQGLEWMGIINPSGGSTSYAQKFQGRVTMTRDTSTSTVYMELSSLRSEDTAVYYCARDVGQDYWFDLWGRGTLVTVSS VL: EIVMTQSPATLSVSPGERATLSCRASQSVSSNLAWYQQKPGQAPRLLIYSASTRATGIPARFSGSGSGTEFTLTISSLQSEDFAVYYCQQYDNFPFTFGGGTKVEIK	7.69

Which pKd reading was recorded for the binder BIIB-9-397 (antibody, V domains shown) VH: QVQLQESGPGLVKPSETLSLTCAVSGYSISSGYYWAWIRQPPGKGLEWIGSIYHSGSTYYNPSLKSRVTISVDTSKNQFSLKLSSVTAADTAVYYCARDVWYVGGFDPWGQGTLVTVSS VL: DIQMTQSPSSLSASVGDRVTITCQASQDISNYLNWYQQKPGKAPKLLIYDASNLETGVPSRFSGSGSGTDFTFTISSLQPEDIATYYCQQSDDHPPTFGGGTKVEIK ?
8.31

Repeat with BIIB-9-1264 (antibody, V domains shown) VH: QVQLVQSGAEVKKPGASVKVSCKASGYTFTSYYMHWVRQAPGQGLEWMGIINPSGGSTSYAQKFQGRVTMTRDTSTSTVYMELSSLRSEDTAVYYCARDGDSSVYAFDYWGQGTLVTVSS VL: DIQMTQSPSSLSASVGDRVTITCQASQDITNYLNWYQQKPGKAPKLLIYDASNLETGVPSRFSGSGSGTDFTFTISSLQPEDIATYYCQQVDDYPFTFGGGTKVEIK
7.83

What do you get for BIIB-9-1272 (antibody, V domains shown) VH: QVQLVQSGAEVKKPGASVKVSCKASGYTFTSYYMHWVRQAPGQGLEWMGIINPSGGSTSYAQKFQGRVTMTRDTSTSTVYMELSSLRSEDTAVYYCARDTGGYAFDIWGQGTLVTVSS VL: DIQMTQSPSSVSASVGDRVTITCRASQGISSWLAWYQQKPGKAPKLLIYAASSLQSGVPSRFSGSGSGTDFTLTISSLQPEDFATYYCQQASSFPFTFGGGTKVEIK ?
7.34

Now the binder BIIB-9-882 (antibody, V domains shown) VH: QVQLVQSGAEVKKPGASVKVSCKASGYTFTSYYMHWVRQAPGQGLEWMGIINPSGGSTSYAQKFQGRVTMTRDTSTSTVYMELSSLRSEDTAVYYCARGPTDSSGYLDMDVWGKGTTVTVSS VL: EIVMTQSPATLSVSPGERATLSCRASQSVSSNLAWYQQKPGQAPRLLIFGASTRATGIPARFSGSGSGTEFTLTISSLQSEDFAVYYCQQHDNFPPTFGGGTKVEIK
8.64

Do the same for BIIB-9-625 (antibody, V domains shown) VH: QLQLQESGPGLVKPSETLSLTCTVSGGSISSSSYAWGWIRQPPGKGLEWIGSIYYSGSTYYNPSLKSRVTISVDTSKNQFSLKLSSVTAADTAVYYCARDRGWYTEVLDIWGQGTMVTVSS VL: DIQMTQSPSSLSASVGDRVTITCRASQSISSYLNWYQQKPGKAPKLLIYAASSLQSGVPSRFSGSGSGTDFTLTISSLQPEDFATYYCQQSDTDPPTFGGGTKVEIK please
7.95

Now try BIIB-9-1270 (antibody, V domains shown) VH: QVQLVQSGAEVKKPGASVKVSCKASGYTFTSYYMHWVRQAPGQGLEWMGIINPSGGSTSYAQKFQGRVTMTRDTSTSTVYMELSSLRSEDTAVYYCARDTGGYAFDIWGQGTLVTVSS VL: EIVLTQSPATLSLSPGERATLSCRASQSVSSYLAWYQQKPGQAPRLLIYDASNRATGIPARFSGSGSGTDFTLTISSLEPEDFAVYYCQQSADFPFTFGGGTKVEIK .
7.62

Further, for BIIB-9-629 (antibody, V domains shown) VH: QVQLVQSGAEVKKPGASVKVSCKASGYTFTSYYMHWVRQAPGQGLEWMGVINPSGGSTSYAQKFQGRVTMTRDTSTSTVYMELSSLRSEDTAVYYCARDPSQDYATGTGWFDPWGQGTLVTVSS VL: DIQLTQSPSSLSASVGDRVTITCQASQDISNYLNWYQQKPGKAPKLLIYDASNLETGVPSRFSGSGSGTDFTFTISSLQPEDIATYYCQQLDSLPPTFGGGTKVEIK ?
7.59
